- experimentalTarget: human mAChR M1 (Homo sapiens)
- Sequence (P11229 whole entry): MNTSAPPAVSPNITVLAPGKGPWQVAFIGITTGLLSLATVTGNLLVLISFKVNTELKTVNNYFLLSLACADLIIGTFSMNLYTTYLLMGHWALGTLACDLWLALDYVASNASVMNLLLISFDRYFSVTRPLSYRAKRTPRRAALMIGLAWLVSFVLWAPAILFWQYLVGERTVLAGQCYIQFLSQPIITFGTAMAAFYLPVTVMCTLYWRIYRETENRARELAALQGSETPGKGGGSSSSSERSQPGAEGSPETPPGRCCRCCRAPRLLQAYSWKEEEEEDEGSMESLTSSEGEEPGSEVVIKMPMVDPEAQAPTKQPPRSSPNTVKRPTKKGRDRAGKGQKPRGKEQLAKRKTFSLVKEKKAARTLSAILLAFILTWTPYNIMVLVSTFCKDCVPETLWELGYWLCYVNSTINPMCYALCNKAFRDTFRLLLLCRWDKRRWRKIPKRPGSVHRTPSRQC
- methodDescription: mAChR M1 cell-based functional assay (calcium mobilization, Fluo-4, FDSS)
- recordedConditions: CHO-K1 cells stably expressing hM1; positive allosteric modulator activity as increase in the EC20 acetylcholine response
measuredEndpoint: EC50 (nM)

INSERT INTO results (molecule, experimentaltarget, measuredendpoint, observedmeasurement) VALUES
  ('Cn1ccc2c(Cc3ccc(-c4nccs4)cc3)cc(C(=O)NC3CC4(COC4)C3)nc21', 'human mAChR M1 (Homo sapiens)', 'EC50', 870);

[A] Cc1nc(-c2ccc(Cc3cc(C(=O)NC4CC5(COC5)C4)nc4c3ccn4C)cc2)co1
[B] O=C(N[C@H]1CCCC[C@@H]1O)c1cc(Cc2ccc(-n3cccn3)cc2)c2ccsc2n1
Lab note: check whether A or B has the lower measured EC50. Write the label of whichever entry you select.
B
